system: Follistatin (Homo sapiens) (UniProt P19883)
Sequence (P19883 whole entry, looked up): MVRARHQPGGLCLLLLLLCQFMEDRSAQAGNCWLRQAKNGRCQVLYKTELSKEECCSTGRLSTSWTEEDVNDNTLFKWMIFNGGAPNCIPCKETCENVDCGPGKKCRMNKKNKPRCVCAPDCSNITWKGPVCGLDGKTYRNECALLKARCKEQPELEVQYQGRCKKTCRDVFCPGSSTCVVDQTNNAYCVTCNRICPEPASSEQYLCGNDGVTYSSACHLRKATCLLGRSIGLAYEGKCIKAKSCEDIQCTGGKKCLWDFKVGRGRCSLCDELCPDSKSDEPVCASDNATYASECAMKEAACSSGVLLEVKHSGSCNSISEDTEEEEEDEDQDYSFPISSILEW
method_notes: follistatin binders on small-molecule microarrays, primary screen, biochemical, small-molecule microarray, 635/667 nm fluorescence (AID 1132)
measurement_context: FST binding, 635 nm fluorescence, higher = more signal
As shown below, each of these compounds has a reported composite z-score value.
Respond numerically, and do not add a unit to the figure.

# composite z-score lookup, item COCCOC(=O)N1C(=O)[C@@]2(c3cc(C#CCC(C(=O)OC)C(=O)OC)ccc31)[C@H](c1ccc(OCCO)cc1)N1[C@H](c3ccccc3)[C@H](c3ccccc3)OC(=O)[C@H]1[C@@H]2C(=O)Nc1nc2ccccc2s1 1.24

# composite z-score lookup, item COc1cc(C(O)C2C=CC3C(=O)N(Cc4ccccc4)C(=O)C3N2n2cnnc2)cc(OC)c1OC (stereo not drawn) 0.448

# composite z-score lookup, item NC(=O)[C@@H]1[C@H]2C(=O)O[C@H](c3ccccc3)[C@H](c3ccccc3)N2[C@H](c2ccc(OCCO)cc2)[C@@]12C(=O)Nc1ccc(C#CCCO)cc12 0.89
